# measurementProtocol: Metabolic stability in the presence of human hepatic microsomes
# Assay type: in vitro ADME
# protocolConditions: compound 1 μM (DMSO 0.1%), microsomal protein 0.5 mg/mL, LC/MS/MS
# Procedure: This is illustrated more particularly by the test of metabolic stability in the presence of human hepatic microsomes presented below. Human hepatic microsomes (Becton Dickinson) are incubated at a protein concentration of 0.5 mg/mL in the reaction mixture. […] The samples are taken from the incubation medium after adding the microsomes, at time 15 minutes. […] The percentage of the parent product remaining after 15 minutes is measured by LC/MS/MS analysis.
Bucketed by reported % of product remaining at 15 min (human hepatic microsomes), buckets being low bracket = under 1%, middle bracket = from 1% up to 30%, high bracket = 30% and over

A selection of reference data follows.
[[record]]
compound = "COc1ccc2c(c1)CCN(C1CCN(C(=O)Cn3cc(-c4ccccc4OC(F)(F)F)c(=O)n(C(C)C)c3=O)CC1)C(=O)N2"
grouplabel = "low bracket"

[[record]]
compound = "COc1ccc2c(c1)CCN(C1CCN(C(=O)Cn3cc(-c4cccc(F)c4Cl)c(=O)n(CC(C)(C)OC)c3=O)CC1)C(=O)N2"
grouplabel = "low bracket"

[[record]]
compound = "COC[C@H](C)n1c(=O)c(-c2cccc(F)c2Cl)cn(CC(=O)Nc2ccc3c(c2)C[C@@]2(C3)C(=O)Nc3ncccc32)c1=O"
grouplabel = "low bracket"


Consider the additional compound presented here.
Task: Looking at COc1cccc(C2=CN(CC(=O)N3CCC(N4CCc5ccccc5NC4=O)CC3)C(=O)N(C(C)C)C2)c1Cl , which class would you pick?
Output: middle bracket

----------
# measurementProtocol: Metabolic stability in the presence of human hepatic microsomes
# Assay type: in vitro ADME
# protocolConditions: compound 1 μM (DMSO 0.1%), microsomal protein 0.5 mg/mL, LC/MS/MS
Output Criterion met for records whose % of product remaining at 15 min (human hepatic microsomes) is lower than 3%, Criterion not met for records at or above 3%.

[[record]]
compound = "COCC(COC)n1c(=O)c(-c2cccc(F)c2Cl)cn(CC(=O)N2CCC(N3CCc4cc(OC)ccc4NC3=O)CC2)c1=O"
grouplabel = "Criterion met"

[[record]]
compound = "COc1ccc2c(c1)CCN(C1CCN(C(=O)Cn3cc(-c4cccc(OC)c4Cl)c(=O)n([C@@H](C)CNC(C)=O)c3=O)CC1)C(=O)N2"
grouplabel = "Criterion met"


Task: Confirm or reject: % of product remaining at 15 min (human hepatic microsomes) of COC[C@@H](C)n1c(=O)c(-c2cccc(F)c2Cl)cn(CC(=O)N2CCC(N3CCc4ccccc4NC3=O)CC2)c1=O lies strictly below 3%
Output: Criterion met

Task: Check if % of product remaining at 15 min (human hepatic microsomes) falls below 3% for COc1ccc2c(c1)CCN(C1CCN(C(=O)Cn3cc(-c4cccc(F)c4Cl)c(=O)n([C@H](C)CS(C)(=O)=O)c3=O)CC1)C(=O)N2 .
Output: Criterion not met

Task: Below 3% on % of product remaining at 15 min (human hepatic microsomes)? Entry COc1ccc2c(c1)CCN(C1CCN(C(=O)Cn3cc(-c4cccc(F)c4Cl)c(=O)n([C@@H](C)CNS(C)(=O)=O)c3=O)CC1)C(=O)N2
Output: Criterion met

----------
# measurementProtocol: Metabolic stability in the presence of human hepatic microsomes
# Format: in vitro ADME
# protocolConditions: compound 1 μM (DMSO 0.1%), microsomal protein 0.5 mg/mL, LC/MS/MS
# Protocol: This is illustrated more particularly by the test of metabolic stability in the presence of human hepatic microsomes presented below. Human hepatic microsomes (Becton Dickinson) are incubated at a protein concentration of 0.5 mg/mL in the reaction mixture. […] The samples are taken from the incubation medium after adding the microsomes, at time 15 minutes. […] The percentage of the parent product remaining after 15 minutes is measured by LC/MS/MS analysis.
readoutLabel: % of product remaining at 15 min (human hepatic microsomes) (%)
Numbers only; they are read as %.

Study these solved cases before continuing.
[[record]]
compound = "COc1c(C)cccc1-c1cn(CC(=O)N2CCC(N3CCc4ccccc4NC3=O)CC2)c(=O)n(C)c1=O [Compound 25]"
measurement = 8

[[record]]
compound = "CSCCn1c(=O)c(-c2cccc(F)c2Cl)cn(CC(=O)N2CCC(N3CCc4ccccc4NC3=O)CC2)c1=O [Compound 112]"
measurement = 0

[[record]]
compound = "COc1ccc2c(c1)CCN(C1CCN(C(=O)Cn3cc(-c4cccc(OC)c4F)c(=O)n(C(C)C)c3=O)CC1)C(=O)N2 [Compound 149]"
measurement = 26

[[record]]
compound = "COc1ccc2c(c1)CCN(C1CCN(C(=O)Cn3cc(-c4cccc(F)c4Cl)c(=O)n([C@@H](C)CNC(C)=O)c3=O)CC1)C(=O)N2 [Compound 115]"
measurement = 0


Task: Entry COC(=O)CCn1c(=O)c(-c2cccc(F)c2Cl)cn(CC(=O)N2CCC(N3CCc4ccccc4NC3=O)CC2)c1=O [Compound 114] : reported % of product remaining at 15 min (human hepatic microsomes) = ?
Output: 41

Task: Which % of product remaining at 15 min (human hepatic microsomes) value is on record for CCC(=O)NC[C@H](C)n1c(=O)c(-c2cccc(F)c2Cl)cn(CC(=O)N2CCC(N3CCc4cc(OC)ccc4NC3=O)CC2)c1=O [Compound 158] ?
Output: 0

Task: Find the recorded % of product remaining at 15 min (human hepatic microsomes) belonging to NCCCC[C@H](NC(=O)[C@@H](Cc1cc(Br)c(O)c(Br)c1)NC(=O)N1CCC(N2Cc3ccccc3NC2=O)CC1)C(=O)N1CCN(c2ccncc2)CC1 [Olcegepant, olcegepant, reference compound] and report it.
Output: 100

Task: Dear colleague, I am looking for the recorded % of product remaining at 15 min (human hepatic microsomes) of the following compound: CC[C@H](C)n1c(=O)c(-c2cccc(F)c2Cl)cn(CC(=O)N2CCC(N3CCc4cc(OC)ccc4NC3=O)CC2)c1=O [Compound 237]
Output: 3

Task: What value of % of product remaining at 15 min (human hepatic microsomes) has been reported for the following compound? CC(C)n1c(=O)c(-c2cccc(F)c2Cl)cn(CC(=O)N2CCC(N3CCc4ccccc4NC3=O)CC2)c1=O [Compound 63]
Output: 45

Task: Quick check: % of product remaining at 15 min (human hepatic microsomes) of O=C(N[C@@H]1CC[C@@H](c2cccc(F)c2F)CN(CC(F)(F)F)C1=O)N1CCC(n2c(=O)[nH]c3ncccc32)CC1 [Telcagepant, telcagepant, reference compound] ?
Output: 100

Task: I have this compound here, O=C(CN1C(=O)C2(CCCC2)NC[C@H]1c1cc(F)cc(F)c1)Nc1ccc2c(c1)C[C@@]1(C2)C(=O)Nc2ncccc21 [MK-3207, reference compound] , and I need its recorded % of product remaining at 15 min (human hepatic microsomes).
Output: 100

----------
# measurementProtocol: Metabolic stability in the presence of human hepatic microsomes
# Type: in vitro ADME
# protocolConditions: compound 1 μM (DMSO 0.1%), microsomal protein 0.5 mg/mL, LC/MS/MS
readoutLabel: % of product remaining at 15 min (human hepatic microsomes) (%)
// return numeric value only (unit: %, not printed)

[[record]]
compound = "COc1ccc2c(c1)CCN(C1CCN(C(=O)Cn3cc(-c4cccc(F)c4Cl)c(=O)n([C@@H](C)CS(C)(=O)=O)c3=O)CC1)C(=O)N2 [Compound 142]"
measurement = 65

[[record]]
compound = "Cc1cccc(-c2cn(CC(=O)N3CCC(N4CCc5ccccc5NC4=O)CC3)c(=O)n(C)c2=O)c1C [Compound 30]"
measurement = 16


Task: Need % of product remaining at 15 min (human hepatic microsomes) of COc1ccc2c(c1)CCN(C1CCN(C(=O)Cn3cc(-c4cccc(F)c4Cl)c(=O)n(CCn4cnnc4)c3=O)CC1)C(=O)N2 [Compound 251] , thanks.
Output: 4
